List of Cmax values.
Experiment: Cmax in Beagle dog at 10 mg/kg,po administrated at 0.25 to 24 hrs by LC-MS/MS analysis
Format: ADME, organism-based, Canis lupus familiaris
Settings: in vivo, time 0.25-24 hrs
Provide only the numeric value, understood in ng/mL.

The reported Cmax of the compound C=CC(=O)N1C[C@@H](n2nc(C#Cc3cc4ncn(C5CC5)c4cc3Cl)c(C(N)=O)c2NC)C[C@@H]1COC was 289

Continuing:
In plain terms, C=CC(=O)N1C[C@@H](n2nc(C#Cc3ccc4c(c3)ncn4C3CC3)c(C(N)=O)c2NC)C[C@@H]1COC has a documented Cmax of 124

* * *

Tested on: RT-112
Assay: Antiproliferative activity against human RT-112 cells assessed as inhibition of cell growth incubated for 5 days by Cell-titer glo assay
Conditions: RT-112, 120 h
Label rule met when IC50 is strictly below 6 nM; otherwise label rule not met.

Look over these answered cases.
Query block: API: query returns whether the molecule falls strictly under 6 nM in IC50. Query: COc1cc(OC)cc(N(CCNC(C)C)c2ccc3ncc(-c4cnn(C)c4)nc3c2)c1
Result block: rule met

Query block: Say whether its IC50 is strictly beneath 6 nM. Entry: C=CC(=O)N1C[C@@H](n2nc(C#Cc3cc4ncn(C5CC5)c4cc3Cl)c(C(N)=O)c2NC)C[C@@H]1COC
Result block: rule not met

Query block: API: query returns whether the molecule falls strictly under 6 nM in IC50. Query: C=CC(=O)N1CC[C@H](n2nc(C#Cc3cc(OC)cc(OC)c3)c3c(N)ncnc32)C1
Result block: rule not met

Query block: Below 6 nM on IC50? Entry CCN1CCN(c2ccc(Nc3cc(N(C)C(=O)Nc4c(Cl)c(OC)cc(OC)c4Cl)ncn3)cc2)CC1
Result block: rule not met

Would you kindly look at the next entry?
Query block: Below 6 nM on IC50? Entry CCN1C(=O)N(c2c(F)c(OC)cc(OC)c2F)Cc2cnc3[nH]c(CN4CCOCC4)cc3c21
Result block: rule met

* * *

Experiment: Solubility of compound in FaSSIF
Format: ADME
ASSAY_READOUT: solubility (µg/mL)
# number only, unit µg/mL dropped from output

What the record says about C=CC(=O)N1C[C@@H](n2nc(C#Cc3c(F)cc4c(ncn4C4CC4)c3F)c(C(N)=O)c2NC)C[C@@H]1COC [RESIGRATINIB] : solubility is 400

* * *

Test: AUC (0 to 24 hrs) in Sprague-Dawley rat at 15 mg/kg,po administrated at 0.25 to 24 hrs by LC-MS/MS analysis
Format: ADME, organism-based
Details: in vivo, time 0.25-24 hrs
ASSAY_READOUT: AUC(0-t) (ng·h/mL)
A number alone suffices; assume ng·h/mL.

The following molecules have reported results that may help.
Consider C=CC(=O)N1C[C@@H](n2nc(C#Cc3ccc4c(c3)ncn4C3CC3)c(C(N)=O)c2NC)C[C@@H]1COC . Its measured AUC(0-t) is 3020

Record summary for C=CC(=O)N1C[C@@H](n2nc(C#Cc3c(F)cc4c(ncn4C4CC4)c3F)c(C(N)=O)c2NC)C[C@@H]1COC : reported AUC(0-t) = 3740

Memo: C=CC(=O)N1C[C@@H](n2nc(C#Cc3cc4ncn(C5CC5)c4cc3F)c(C(N)=O)c2NC)C[C@@H]1COC , reported AUC(0-t): 2620

// below: AUC(0-t) requested for another molecule
# AUC(0-t) of C=CC(=O)N1C[C@@H](n2nc(C#Cc3cc4ncn(C5CC5)c4cc3Cl)c(C(N)=O)c2NC)C[C@@H]1COC = 1500
